Tested on: Acinetobacter baumannii ATCC17961
ASSAY REMARKS: Antimicrobial susceptibility testing: 90% growth inhibitory concentration (IC90) determination, Iso-Sensitest broth
Assay type: cell-based
MEASUREMENT SETUP: Acinetobacter baumannii, ATCC17961, 16 h, 90% growth inhibitory concentration, Acinetobacter baumannii ATCC17961, Iso-Sensitest broth, OD 600 nm over 16 h; read-out: ATCC17961 IC90
Counter-ions that a name gives are not always drawn.
MEASURED ATTRIBUTE: IC90 (µM)

[I] COc1ccc(-c2cnc3c(Nc4ccc(C(=O)N5CCC(C(=O)N6C[C@@H](O)[C@@H](O)[C@@H](O)C6)CC5)c(C)c4)nccn23)c(F)c1F [Example 569]
[II] COc1ccc(-c2cnc3c(Nc4ccc(C(=O)N5CCC(C(=O)NCC(O)CN(C)C)CC5)c(C)c4)nccn23)c(F)c1F (stereo not drawn) [Example 89]
[III] COc1ccc(-c2cnc3c(Nc4ccc(C(=O)N5CCN(C(=O)[C@H](CCCN)NC(=O)[C@@H](N)CCC(=O)O)CC5)c(C)c4)nccn23)c(F)c1F [Example 535, hydrochloride]
Request: Sort the listed entries by IC90, smallest first. Sort and list the labels as requested.
Result: II, I, III

[P] COc1ccc(-c2cnc3c(Nc4cc(F)c(C(=O)N5CCN(C(=O)[C@@H]6C[C@@H](O)CN6)CC5)cc4F)nccn23)c(F)c1F [Example 244]
[Q] Cc1cc(Nc2nccn3c(-c4ccc(OCC#N)c(F)c4Cl)cnc23)ccc1C(=O)N1CCN(C(=O)[C@H]2CCNC[C@@H]2O)CC1 [Example 220, formate]
Request: Short answer wanted: higher IC90, P or Q ? Write down the label of the entry you select.
Result: P

----------
Test system: Acinetobacter baumannii ATCC17961
ASSAY REMARKS: Antimicrobial susceptibility testing: 90% growth inhibitory concentration (IC90) determination, Iso-Sensitest broth
Assay type: cell-based
MEASUREMENT SETUP: Acinetobacter baumannii, ATCC17961, 16 h, 90% growth inhibitory concentration, Acinetobacter baumannii ATCC17961, Iso-Sensitest broth, OD 600 nm over 16 h; read-out: ATCC17961 IC90
Where a name gives a salt, the structure may show the parent alone.
MEASURED ATTRIBUTE: IC90 (nM)

[
  {
    "MOLECULE": "COc1ccc(-c2cnc3c(Nc4ccc(C(=O)N5CCN(C(=O)[C@@H]6CCC(C)(C)N6)CC5)c(C)c4)nccn23)c(F)c1F [Example 77, hydrochloride]",
    "TARGET SYSTEM": "Acinetobacter baumannii ATCC17961",
    "IC90 (nM)": 83
  },
  {
    "MOLECULE": "COc1ccc(-c2cnc3c(Nc4ccc(C(=O)N5CCN(C(=O)[C@@H]6C[C@@H](F)CN6)CC5)c(C)c4)nccn23)c(F)c1F [Example 81, hydrochloride]",
    "TARGET SYSTEM": "Acinetobacter baumannii ATCC17961",
    "IC90 (nM)": 106
  },
  {
    "MOLECULE": "Cc1cc(Nc2nccn3c(-c4ccc(OCC#N)c(F)c4Cl)cnc23)ccc1C(=O)N1CCN(C(=O)N[C@@H](C)CN)CC1 [Example 162, formate]",
    "TARGET SYSTEM": "Acinetobacter baumannii ATCC17961",
    "IC90 (nM)": 46
  },
  {
    "MOLECULE": "COc1ccc(-c2cnc3c(Nc4ccc(C(=O)N5CCN(C(=O)[C@@H]6C[C@H](F)CN6)CC5)c(C)c4)nccn23)c(F)c1F [Example 83, hydrochloride]",
    "TARGET SYSTEM": "Acinetobacter baumannii ATCC17961",
    "IC90 (nM)": 85
  }
]

[P] CC[C@@]1(O)CN[C@H](C(=O)N2CCN(C(=O)c3ccc(Nc4nccn5c(-c6ccc(OCC#N)c(F)c6F)cnc45)cc3C)CC2)C1 [Example 229, formate]
[Q] Cc1cc(Nc2nccn3c(-c4ccc(OCC#N)c(F)c4Cl)cnc23)ccc1C(=O)N1CCC(C(=O)N2CCN[C@H](CO)C2)CC1 [Example 538]
Request: Short answer wanted: higher IC90, P or Q ? Write down the label of the entry you select.
Result: Q
